Source of measurements: patent US11053235B2

# System: HBV
# assay-method-text: Anti-viral assay in HepG2.2.15 cells: HBV inhibitory activity (HBV DNA in culture medium by q-PCR)
# Assay type: cell-based
# conditions: Hepatitis B virus, HepG2.2.15, 144 h, HepG2.2.15 cells, 6 days treatment, HBV DNA in culture medium by q-PCR, highest concentration 10 uM; read-out: EC50
EC50 by entry:
measured-property: EC50 (nM)

>  <compound>
COC(=O)C1=C(C2CCN(c3ncc(C)c(C(=O)O)n3)CC2)NC(c2nccs2)=NC1c1cccc(F)c1Cl (single isomer, unassigned)

>  <measured-property>
EC50

>  <data-value>
8.1

$$$$
>  <compound>
CCOC(=O)C1=C([C@H]2CC[C@H](c3nc(C(=O)O)c(C)o3)CC2)NC(c2nccs2)=NC1c1ccc(F)c(F)c1Cl (single isomer, unassigned)

>  <measured-property>
EC50

>  <data-value>
4.7

$$$$
>  <compound>
COC(=O)C1=C([C@H]2CC[C@H](c3nc(CC(=O)O)co3)CC2)NC(c2nccs2)=NC1c1ccc(F)cc1Br (single isomer, unassigned)

>  <measured-property>
EC50

>  <data-value>
7

$$$$
>  <compound>
CCOC(=O)C1=C([C@H]2CC[C@H](c3cnn(CC(C)(C)C(=O)O)c3)CC2)NC(c2nccs2)=NC1c1ccc(F)c(F)c1Cl (single isomer, unassigned)

>  <measured-property>
EC50

>  <data-value>
8.3

$$$$
>  <compound>
COC(=O)C1=C(C2CCN(c3nc(C(=O)O)cs3)CC2)NC(c2nccs2)=NC1c1ccc(F)c(F)c1Cl (single isomer, unassigned)

>  <measured-property>
EC50

>  <data-value>
46

$$$$

====

# Tested on: HepG2.2.15 cells
# assay-method-text: Cytotoxicity determination in HepG2.2.15 cells (CCK-8)
# Assay type: cell-based
# conditions: 6 days treatment, CCK-8, highest concentration 100 uM
# Method: Example 2: Anti-Viral Assay in HepG2.2.15 Cells 1.1. […] After 6 days of compounds treatment, add 20 μl CCK-8 reagents to each well of cytotoxicity assay plates, incubate the plate at 37° C., 5% CO2 for 2.5 h and measure the absorbance at 450 nm wavelength, at the same time read the absorbance at 630 nm wavelength as reference. EC50 and CC50 values are calculated by the GRAPHPAD PRISM software.
measured-property: CC50

>  <compound>
CCOC(=O)C1=C(C2CC=C(c3nc(C(=O)O)co3)CC2)NC(c2nccs2)=NC1c1ccc(F)c(F)c1Cl (single isomer, unassigned) [Compound I-13-D]

>  <data-value>
6.09 µM

$$$$

====

# System: HBV
# assay-method-text: Anti-viral assay in HepG2.2.15 cells: HBV inhibitory activity (HBV DNA in culture medium by q-PCR)
# Format: cell-based
# conditions: Hepatitis B virus, HepG2.2.15, 144 h, HepG2.2.15 cells, 6 days treatment, HBV DNA in culture medium by q-PCR, highest concentration 10 uM; read-out: EC50
pEC50: −log10 of the molar value.
measured-property: pEC50

>  <molecule>
COC(=O)C1=C([C@H]2CC[C@H](c3nc(CC(C)(C)C(=O)O)co3)CC2)NC(c2nccs2)=NC1c1ccc(F)c(F)c1Cl (single isomer, unassigned)

>  <value-prefix>
=

>  <data-value>
8.21

$$$$
>  <molecule>
CCOC(=O)C1=C(C2CCN(c3nc(C)c(C)c(C(=O)O)n3)CC2)NC(c2nccs2)=NC1c1ccc(F)c(F)c1Cl (single isomer, unassigned)

>  <value-prefix>
=

>  <data-value>
7.66

$$$$
>  <molecule>
CCOC(=O)C1=C(C2CCN(c3nc(COC)c(C(=O)O)s3)CC2)NC(c2nccs2)=NC1c1ccc(F)c(F)c1Cl (single isomer, unassigned)

>  <value-prefix>
=

>  <data-value>
7.54

$$$$
>  <molecule>
COC(=O)C1=C(C2CCN(c3ccc(CCC(=O)O)cn3)CC2)NC(c2nccs2)=NC1c1ccc(F)cc1Cl (single isomer, unassigned)

>  <value-prefix>
>

>  <data-value>
8.34

$$$$
>  <molecule>
CCOC(=O)C1=C([C@H]2CC[C@@H](n3nccc3C(=O)O)CC2)NC(c2nccs2)=NC1c1ccc(F)c(F)c1Cl (single isomer, unassigned)

>  <value-prefix>
=

>  <data-value>
7.09

$$$$
